FYI, the data here is from PubChem BioAssay (NCI).

Property: TGI; scope: individual compounds
Test system: KM20L2 colon
ASSAY METHOD TEXT: NCI tumour cell line growth inhibition, 48 h
Give the value, in units of µM, as a plain number.

1. CN(C)CCNC(=O)c1cccc2nc3cc(Cl)ccc3nc12 :: 9.08
2. COc1ccc2c3c([nH]c2c1[N+](=O)[O-])C(C)N(Cc1ccc([N+](=O)[O-])cc1)CC3 (configuration not stated) :: 45

For COc1cc(OC)c(SSCCCCS(=O)O)c(OC)c1 , what is its reported TGI?
37.9

---

Test system: MALME-3M melanoma
ASSAY METHOD TEXT: NCI tumour cell line growth inhibition, 48 h
Each item that follows carries a reported TGI.

Consider the following illustrative entries.
1) CCN(Cc1ccccc1)c1ccc(CO)c(Cl)c1 :: > 82.6 µM
2) C=CC1CCC[N+]1(CC(=O)OCC)Cc1ccccc1 (stereo unspecified) :: > 100 µM
3) c1ccc2c(NCCCCCCNc3c4ccccc4nc4ccccc34)c3ccccc3nc2c1 :: 2.49 µM
4) CC[C@H](Nc1c(O)c2c(c(O)c1Cl)C(=O)C=CC2=O)C(=O)OC :: > 10 µM
5) COc1ccc2cc3[nH]c(=O)cc(O)c3cc2c1OC :: > 100 µM

Now for another entry.
Can you look up the measured TGI of C#CC1(OC(C)=O)CCC2C3CC=C4C=C(OC(C)=O)CCC4(C)C3CCC21C (stereo unspecified) for me?
33.9 µM
